Assay: in vitro
Conditions: African green monkey
Quantity measured: CC50 (µM)
Answers are plain numbers, in µM.

Q. Supply recorded CC50 for `CC(=O)c1c(O)c(C)c(O)c(Cc2c(O)c3c(c(C(=O)/C=C/c4ccccc4)c2O)OC(C)(C)C=C3)c1O` here.
A. 63
